- System: Plasmodium falciparum 3D7 (CQ-sensitive)
- test_name: In vitro antimalarial assay (malaria SYBR Green I-based fluorescence, MSF), 3D7
- Type: cell-based
- condition_description: 3D7, Table 10, read-out: Pf3D7 IC50
pIC50: −log10 of the molar value.
Classify by measured pIC50: yes (1) if it is equal to or exceeds 6, no (0) if it is smaller.

COc1ccc(C2(c3ccc(OC)cc3)NC(=N)N(C3CCCC3)C2=O)cc1    yes (1)
N=C1NC(c2ccccc2)(c2ccccc2)C(=O)N1Cc1ccccc1    no (0)
COc1ccc(C2(c3ccc(OC)cc3)NC(=N)N(C3CCCCCC3)C2=O)cc1    yes (1)

Then this compound:
Item COc1ccc(C2(c3ccc(OC)cc3)NC(=N)N(C3CCNCC3)C2=O)cc1 with pIC50 of 6 or above?
no (0)

###

- assay_system: recombinant human Cathepsin D (Homo sapiens (Human), UniProt P07339)
- Sequence (P07339 65-412): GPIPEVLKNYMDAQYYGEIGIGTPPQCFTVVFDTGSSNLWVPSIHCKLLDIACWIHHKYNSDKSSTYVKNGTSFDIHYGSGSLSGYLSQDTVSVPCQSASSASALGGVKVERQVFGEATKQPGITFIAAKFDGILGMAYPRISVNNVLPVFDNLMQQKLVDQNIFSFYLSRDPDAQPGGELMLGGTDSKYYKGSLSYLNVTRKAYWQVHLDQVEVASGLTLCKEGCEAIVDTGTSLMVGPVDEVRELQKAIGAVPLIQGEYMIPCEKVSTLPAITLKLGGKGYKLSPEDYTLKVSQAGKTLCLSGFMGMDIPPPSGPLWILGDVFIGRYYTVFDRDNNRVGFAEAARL
- test_name: Cathepsin D enzyme inhibition FRET assay
- condition_description: Table 8; read-out: CatD IC50
endpoint_label: IC50 (nM)
Dear colleague, please return just the value in nM, with no unit written.

For the compound shown here, CCC(CN1C(=N)NC(c2ccccc2)(c2ccccc2)C1=O)c1ccccc1 (stereo not shown) [drawing 192] , give the reported IC50.
385

So what's the measured IC50 for this one? COc1ccc(C2(c3ccc(OC)cc3)NC(=N)N(C3CCN(C(=O)OC(C)(C)C)CC3)C2=O)cc1
520

Request the reported IC50 associated with COc1cccc(C2(c3cccc(OC)c3)NC(=N)N(C3CCCCC3)C2=O)c1
1100

Which IC50 value is on record for COc1ccc(C2(c3ccc(OC)cc3)NC(=N)N(CC3CCOCC3)C2=O)cc1 ?
934

###

- test_name: RLM metabolic stability assay
- Format: in vitro ADME
- condition_description: pH 7.4, rat liver microsomes, read-out: RLM t1/2
endpoint_label: half-life at 1 μM

For the compound shown here, COc1ccc(C2(c3ccc(OC)cc3)NC(=N)N(C3CCN(C(=O)OC(C)(C)C)CC3)C2=O)cc1 [Example 206] , give the reported half-life at 1 μM.
14 min

Any idea what half-life at 1 μM was measured for COc1ccc(C2(c3ccc(OC)cc3)NC(=N)N(CC3CCOCC3)C2=O)cc1 [Example 275] ?
35 min

Requested read-out: half-life at 1 μM. Entry: COc1ccc(C2(c3ccc(OC)cc3)NC(=N)N(C3CCOCC3)C2=O)cc1 [Example 176]
83 min

###

Parameter IC50: see the listing below.
- System: Plasmodium falciparum 3D7 (CQ-sensitive)
- test_name: In vitro antimalarial assay (malaria SYBR Green I-based fluorescence, MSF), 3D7
- Assay type: cell-based
- condition_description: 3D7, 48 h, read-out: Pf 3D7 IC50 (μM, 48 hr), 48 hr
Give just the numeric value; µM need not be written.

Worked cases, answers included:
COc1ccc(C2(c3ccc(OC)cc3)NC(=N)N(CC3CCOCC3)C2=O)cc1    0.571
COc1ccc(C2(c3ccc(OC)cc3)NC(=N)N(C3CCOCC3)C2=O)cc1    0.404

Which value of IC50 has been reported for COc1ccc(C2(c3ccc(OC)cc3)NC(=N)N(C3CCN(C(=O)OC(C)(C)C)CC3)C2=O)cc1 in the records?
0.339

###

- test_name: Plasma compound concentration in the in vivo efficacy study
- condition_description: NIH, mouse, plasma, 100 mg/kg; mice, 100 mpk oral, 24 h post last dose on Day 3
Below, each entry is listed with its recorded concentration at 24 h.

COc1ccc(C2(c3ccc(OC)cc3)NC(=N)N(C3CCN(C(=O)OC(C)(C)C)CC3)C2=O)cc1    7 ng/mL

// switching to the query compound
Consider the compound shown here: COc1ccc(C2(c3ccc(OC)cc3)NC(=N)N(CC3CCOCC3)C2=O)cc1 What is its recorded concentration at 24 h?
123 ng/mL

###

- System: Plasmodium falciparum 3D7 (CQ-sensitive)
- test_name: In vitro antimalarial assay (malaria SYBR Green I-based fluorescence, MSF), 3D7
- Type: cell-based
- condition_description: 3D7, Table 11, read-out: Pf 3D7 IC50
endpoint_label: pIC50
Friendly reminder that pIC50 comes from taking -log10 of the concentration in mol/L.

COc1cccc(C2(c3cccc(-c4cccnc4)c3)NC(=N)N(C3CCCCC3)C2=O)c1 (stereo not drawn) [Example 214]    6.10
COc1ccc(C2(c3cccc(-c4ccccn4)c3)NC(=N)N(C3CCCCC3)C2=O)cc1 (stereo not drawn) [Example 210]    5.74
COc1cccc(C2(c3cccc(-c4ccncc4)c3)NC(=N)N(C3CCCCC3)C2=O)c1 (stereo not drawn) [Example 225]    6.50

# lookup: pIC50 of N=C1NC(c2ccc(Cl)cc2)(c2ccc(Cl)cc2)C(=O)N1C1CCCCC1 [Example 155]
5.97

Suppose we examine the compound N=C1NC(c2ccccc2)(c2cccc(OCc3ccccc3)c2)C(=O)N1C1CCCCC1 (stereo not drawn) [Example 228] ; what pIC50 value has been reported?
6.19

###

- test_name: Plasma compound concentration in the in vivo efficacy study
- condition_description: NIH, mouse, plasma, 100 mg/kg; mice, 100 mpk oral, 1 h post last dose on Day 3
endpoint_label: concentration at 1 h

COc1ccc(C2(c3ccc(OC)cc3)NC(=N)N(CC3CCOCC3)C2=O)cc1    10400 ng/mL

Please find the next compound below.
Suppose we examine the compound COc1ccc(C2(c3ccc(OC)cc3)NC(=N)N(C3CCN(C(=O)OC(C)(C)C)CC3)C2=O)cc1 ; what concentration at 1 h value has been reported?
2520 ng/mL

###

- assay_system: recombinant human BACE1 (Homo sapiens)
- Sequence (P56817 46-501 limits assumed): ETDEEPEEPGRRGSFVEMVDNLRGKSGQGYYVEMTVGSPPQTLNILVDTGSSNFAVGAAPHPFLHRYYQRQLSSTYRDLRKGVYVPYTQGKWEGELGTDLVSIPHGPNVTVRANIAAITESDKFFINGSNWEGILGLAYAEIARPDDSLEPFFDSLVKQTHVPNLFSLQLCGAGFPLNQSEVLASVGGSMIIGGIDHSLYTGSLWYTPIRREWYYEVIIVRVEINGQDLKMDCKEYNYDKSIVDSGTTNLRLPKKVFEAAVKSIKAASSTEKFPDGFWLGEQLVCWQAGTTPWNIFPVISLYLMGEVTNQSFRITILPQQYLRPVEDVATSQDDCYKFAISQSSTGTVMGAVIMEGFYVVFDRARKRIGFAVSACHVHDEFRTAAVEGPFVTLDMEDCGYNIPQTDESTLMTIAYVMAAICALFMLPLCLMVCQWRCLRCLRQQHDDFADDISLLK
- test_name: β-Secretase (BACE1) enzyme inhibition FRET assay
- Type: biochemical
- condition_description: Table 13; read-out: BACE1 IC50
pIC50: −log10 of the molar value.
Threshold rule: pIC50 greater than or equal to 5 is true; below that, false.

Take a look at these entries with their results.
COc1ccc(C2(C3CC3)NC(=N)N(C3CCOCC3)C2=O)cc1 (centres unmarked)    false
COc1ccc(C2(c3ccccn3)NC(=N)N(C3CCOCC3)C2=O)cc1 (centres unmarked)    false
COc1ccc(C2(c3ccc(OC)cc3)NC(=N)N(CC3CCCCC3)C2=O)cc1    true
COc1cccc(C2(c3cccc(OC)c3)NC(=N)N(C3CCCCC3)C2=O)c1    false
N=C1NC(c2ccccc2)(c2ccccc2)C(=O)N1C1CCCCC1    false
N#Cc1cncc(-c2cccc(C3(C4CC4)NC(=N)N(C4CCOCC4)C3=O)c2)c1 (centres unmarked)    true
COc1ccc(C2(c3ccc(OC)cc3)NC(=N)N(C3CC3)C2=O)cc1    false
COc1ccc(C2(c3ccc(OC)cc3)NC(=N)N(C3CCN(C(=O)CCN(C)C)CC3)C2=O)cc1    false

Here is another molecule to look at.
Does the molecule N#Cc1cncc(-c2cccc(C3(C4CC4)NC(=N)N(C4CCCCC4)C3=O)c2)c1 (centres unmarked) have recorded pIC50 that is 5 or more?
true

###

Overview of recorded pIC50 for various compounds
- Test system: Plasmodium falciparum 3D7 (CQ-sensitive)
- test_name: In vitro antimalarial assay (malaria SYBR Green I-based fluorescence, MSF), 3D7
- Assay type: cell-based
- condition_description: 3D7, Table 8, read-out: Pf 3D7 IC50
pIC50: −log10 of the molar value.

COc1ccc(C2(c3ccc(OC)cc3)NC(=N)N(C3CCN(C)CC3)C2=O)cc1    6.16
COc1ccc(C2(c3ccc(OC)cc3)NC(=O)N(C3CCCCC3)C2=O)cc1    < 5.00
COc1ccc(C2(c3ccc(OC)cc3)NC(=N)N(C3CCNCC3)C2=O)cc1    < 5.30

Next compound, pIC50 to be filled in.
What value of pIC50 has been reported for the following compound? COc1ccc(C2(c3ccc(OC)cc3)NC(=S)N(C3CCCCC3)C2=O)cc1
< 5.30

###

- test_name: Plasma compound concentration in the in vivo efficacy study
- condition_description: NIH, mouse, plasma, 110 mg/kg; mice, 110 mpk oral, 24 h post last dose on Day 3
endpoint_label: concentration at 24 h (ng/mL)
Kindly provide the numeric value in ng/mL only, without the unit symbol.

Given the compound COc1ccc(C2(c3ccc(OC)cc3)NC(=N)N(C3CCOCC3)C2=O)cc1 , what is its reported concentration at 24 h?
29

###

- assay_system: Plasmepsin-2 (PM-2; Plm II) (Plasmodium falciparum (isolate HB3))
- Sequence (P46925 125-453 limits assumed): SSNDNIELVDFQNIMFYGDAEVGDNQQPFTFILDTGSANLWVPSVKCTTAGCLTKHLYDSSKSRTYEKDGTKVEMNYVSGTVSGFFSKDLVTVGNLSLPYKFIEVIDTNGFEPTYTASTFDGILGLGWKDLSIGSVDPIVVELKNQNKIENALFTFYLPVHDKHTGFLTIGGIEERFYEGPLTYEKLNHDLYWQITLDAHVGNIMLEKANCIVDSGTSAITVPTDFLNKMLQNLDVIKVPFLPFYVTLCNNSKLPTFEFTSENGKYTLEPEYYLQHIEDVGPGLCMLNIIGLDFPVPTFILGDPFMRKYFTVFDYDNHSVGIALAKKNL
- test_name: Plasmepsin-2 enzyme inhibition assay
- Assay type: biochemical
- condition_description: Table 13; read-out: PM-2 IC50
endpoint_label: log10 IC50 (log10 of the value in nM)
Annotation: log10 of IC50, nM basis.

Solved entries (count: 5):
COc1ccc(C2(c3ccc(OC)cc3)NC(=N)N(C3CCNCC3)C2=O)cc1    2.70
COc1ccc(C2(c3cccc(-c4ccncc4)c3)NC(=N)N(C3CCCCC3)C2=O)cc1 (centres unmarked)    0.98
N=C1NC(c2ccc(Cl)cc2)(c2ccc(Cl)cc2)C(=O)N1C1CCCCC1    0.78
COc1ccc(C2(c3ccc(OC)cc3)NC(=N)N(CC34CC5CC(CC(C5)C3)C4)C2=O)cc1    0.30
N=C1NC(c2ccccc2)(c2cccc(-c3ccncc3)c2)C(=O)N1C1CCCCC1 (centres unmarked)    1.15

Could you tell me which log10 IC50 is on file for COc1ccc(C2(c3ccc(OC)cc3)NC(=N)N(Cc3cccnc3)C2=O)cc1 ?
0.98

I'd like to know its log10 IC50. The compound in question is COc1ccc(C2(c3cccc(-c4ccccn4)c3)NC(=N)N(C3CCCCC3)C2=O)cc1 (centres unmarked)
0.74

If you can, please state the reported log10 IC50 value of COc1ccc(C2(c3ccc(OC)cc3)NC(=N)N(CC3CCCCC3)C2=O)cc1 .
0.38
